Reference source: patent US7196110B2

Below are IC50 values measured for c-Abl kinase (Abelson murine leukemia virus, UniProt P00521).
Provide only the numeric value, understood in nM.

CCOc1cc2c(cc1OCC)C(C)c1c-2n[nH]c1Nc1cccc(OC)c1 (stereo not drawn)    11
Nc1ccc2c(c1)Cc1c-2n[nH]c1Nc1cccc(Cl)c1    524
COc1cccc(Nc2[nH]nc3c2Cc2cc(Br)c(OC)cc2-3)c1    6
COc1cc2c(cc1F)Cc1c-2n[nH]c1Nc1ccc(F)cc1    43

Give the reported IC50 for COCCCOc1cc2c(cc1OCCCOC)-c1n[nH]c(Nc3cccnc3)c1C2 (system: c-Abl kinase (Abelson murine leukemia virus, UniProt P00521)).
Sequence (P00521 115-385): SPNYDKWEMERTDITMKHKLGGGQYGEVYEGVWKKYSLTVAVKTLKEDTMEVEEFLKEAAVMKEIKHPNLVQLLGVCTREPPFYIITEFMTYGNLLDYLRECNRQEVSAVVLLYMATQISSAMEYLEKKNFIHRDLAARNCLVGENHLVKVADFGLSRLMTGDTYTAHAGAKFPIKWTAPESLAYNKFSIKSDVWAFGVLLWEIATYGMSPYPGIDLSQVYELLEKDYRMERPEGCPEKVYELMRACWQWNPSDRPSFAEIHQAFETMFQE
2950

Also COc1cccc(Nc2[nH]nc3c2Cc2cc(OCC(O)CN4CCCC4)c(OC)cc2-3)c1 (stereo not drawn) , if possible.
36

Also CN(C)CCCOc1cccc2c1Cc1c-2n[nH]c1Nc1cccc(F)c1 , if possible.
10300

Also CCOC(=O)CC(=O)n1nc(Nc2cccc(F)c2)c2c1-c1cc(OC)c(OC)cc1C2 , if possible.
70

Also COc1cc2c(cc1OC)-c1n[nH]c(Nc3cccc(C)c3)c1C2 , if possible.
2

* * *

- System under test: PDGF-receptor beta enzyme comprising the tyrosine kinase domain (Homo sapiens)
- Construct: from amino acid 545 to 1106 of GenBank Access NO: AAA36427
- Sequence (P09619 545-1106): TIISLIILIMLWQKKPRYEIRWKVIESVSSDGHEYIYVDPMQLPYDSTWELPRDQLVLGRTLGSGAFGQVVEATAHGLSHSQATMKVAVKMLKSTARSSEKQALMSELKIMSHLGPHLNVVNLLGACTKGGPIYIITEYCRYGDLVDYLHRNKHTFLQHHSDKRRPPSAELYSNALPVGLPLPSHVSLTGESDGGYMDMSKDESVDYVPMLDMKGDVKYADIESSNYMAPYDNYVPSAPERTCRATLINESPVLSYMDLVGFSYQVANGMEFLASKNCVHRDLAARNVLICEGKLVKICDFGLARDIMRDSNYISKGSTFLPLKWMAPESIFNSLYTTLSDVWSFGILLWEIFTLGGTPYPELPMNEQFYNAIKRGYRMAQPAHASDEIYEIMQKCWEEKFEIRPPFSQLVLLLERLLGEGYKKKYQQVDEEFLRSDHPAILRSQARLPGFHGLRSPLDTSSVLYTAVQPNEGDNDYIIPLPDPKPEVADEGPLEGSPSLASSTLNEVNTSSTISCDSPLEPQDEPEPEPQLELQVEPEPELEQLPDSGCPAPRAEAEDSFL
- Test description: Inhibition of PDGF-receptor kinase activity (cell-free, PLC1 peptide, 33P Flashplate)
- Format: biochemical
- Measurement setup: PDGF-R kinase activity; read-out: IC50
Listed here: items and their measured log10 of IC50.
Hey, these are logged values: log10 of IC50, nM being the unit before logging.

Study these solved cases before continuing.
COc1ccccc1Nc1[nH]nc2c1Cc1cc(OC)c(OC)cc1-2    2.82
COc1cc2c(cc1OC)C(C)c1c-2n[nH]c1Nc1ccccc1 (stereo not drawn)    1.85
Cc1ccc2c(c1)-c1n[nH]c(Nc3cc(F)ccc3F)c1C2    1.70
CCCC(=O)OCn1nc2c(c1Nc1cccc(F)c1)Cc1cc(OC)c(OC)cc1-2    2.50
COc1cc2c(cc1OC)-c1n[nH]c(NCc3c(F)cccc3F)c1C2    0.87

Form field: reported log10 of IC50 of CN(C)CCCOc1cccc2c1Cc1c-2n[nH]c1Nc1cccc(F)c1
0.94

Also COCCCOc1ccc2c(c1)Cc1c-2n[nH]c1Nc1ccc(OC)cc1 , if possible.
3.91

Also COc1cc2c(cc1OCCCO)Cc1c-2n[nH]c1Nc1ccc(F)c(Cl)c1 , if possible.
1.03

Also COc1ccc(Nc2[nH]nc3c2Cc2cc(F)ccc2-3)cc1OC , if possible.
1.67

Also COc1ccc2c(c1)-c1n[nH]c(Nc3ccc(F)cc3)c1C2 , if possible.
1.43

Also COc1cc2c(cc1OC)-c1c(c(Nc3cccc(F)c3)nn1C(=O)Oc1ccccc1)C2 , if possible.
2.77

Also CCOc1cc2c(cc1OCCCO)Cc1c-2n[nH]c1Nc1cccc(OC)c1 , if possible.
0.75

Also COc1ccc(OC)c(Nc2[nH]nc3c2Cc2c(C)cccc2-3)c1 , if possible.
3.04

Also Fc1cccc(F)c1CNc1[nH]nc2c1Cc1c(OCCCN3CCOCC3)cccc1-2 , if possible.
2.75

Also COc1cccc2c1Cc1c-2n[nH]c1Nc1cccnc1 , if possible.
2.20

Also COc1cc2c(cc1OCCCN1CCOCC1)Cc1c-2n[nH]c1Nc1cccnc1 , if possible.
1.56

Also COC(=O)C(CC(C)C)NC(=O)n1nc2c(c1Nc1cccc(F)c1)Cc1cc(OC)c(OC)cc1-2 (stereo not drawn) , if possible.
4.10

Also Fc1cccc(Nc2[nH]nc3c2Cc2c(OCCCN4CCOCC4)cccc2-3)c1 , if possible.
2.24
